target: T1, human TMEM106B (human, UniProt Q9NUM4 2-274); experiment: FACS HEK+huTMEM 1.0 ug/ml;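 also: binding of purified mouse IgG antibodies to HEK293 cells transiently expressing human TMEM106B, read by flow cytometry as median fluorescence intensity of live, propidium iodide-negative cells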
T1 construct: full-length, transiently expressed on HEK293 cells, or natively expressed on HeLa, U251 and A549 cells (the cell is named under assay); also the source of the Pepscan peptides; also called huTMEM106B; huTMEM
Readout Kind: MFI (MFI)
Kindly provide the numeric value in MFI only, without the unit symbol.

Input line: // returns reported MFI for input TM-26 (antibody, V domains shown) VH: QVQLQQSGAELIRPGTSVKVSCKASGYAFTNYLIEWVKKRPGQGLEWIGVINPGSGITNYNEKFKGKATLTADKSSSTAYMQLSSLTSEDSAVYFCARSDFITTVVADYWGQGTTVTVSS VL: DIVVTQTPLSLPVSFGDQVSISCRSSQSLTNYYGNTYLSWYLHKPGQSPQLLIYGISNRFSGVPDRFSGSGSGTDFTLKISTIKPEDLGMYYCLQGTHQPRTFGGGTKLEIK
Output line: 3340

Input line: Input TM-12 (antibody, V domains shown) VH: EVQLQQSGAELMRPGASVKLSCTASGFNIQDYYMYWVKQRPEQGLEWIGRIDPEDGDAEYAPKFQGKATMTADTSSNTAYLQLSSLTSEDTAVYYCSTRVIYDGYYRTMDCWGQGTSVTVSS VL: DVLMTQIPLSLPVSLGDQASISCRSSQTIVHSNGNTYLEWYLKKPGQSPKLLIDKISNRFSGVPDRFSGSGSGTDFTLKISRVEAEDLGVYYCFQGSHVPYTFGGGTKLEIK
Output line: 77800
